testedTarget: KIT (Homo sapiens)
Construct: made in house
Sequence (P10721 26-976, species assumed): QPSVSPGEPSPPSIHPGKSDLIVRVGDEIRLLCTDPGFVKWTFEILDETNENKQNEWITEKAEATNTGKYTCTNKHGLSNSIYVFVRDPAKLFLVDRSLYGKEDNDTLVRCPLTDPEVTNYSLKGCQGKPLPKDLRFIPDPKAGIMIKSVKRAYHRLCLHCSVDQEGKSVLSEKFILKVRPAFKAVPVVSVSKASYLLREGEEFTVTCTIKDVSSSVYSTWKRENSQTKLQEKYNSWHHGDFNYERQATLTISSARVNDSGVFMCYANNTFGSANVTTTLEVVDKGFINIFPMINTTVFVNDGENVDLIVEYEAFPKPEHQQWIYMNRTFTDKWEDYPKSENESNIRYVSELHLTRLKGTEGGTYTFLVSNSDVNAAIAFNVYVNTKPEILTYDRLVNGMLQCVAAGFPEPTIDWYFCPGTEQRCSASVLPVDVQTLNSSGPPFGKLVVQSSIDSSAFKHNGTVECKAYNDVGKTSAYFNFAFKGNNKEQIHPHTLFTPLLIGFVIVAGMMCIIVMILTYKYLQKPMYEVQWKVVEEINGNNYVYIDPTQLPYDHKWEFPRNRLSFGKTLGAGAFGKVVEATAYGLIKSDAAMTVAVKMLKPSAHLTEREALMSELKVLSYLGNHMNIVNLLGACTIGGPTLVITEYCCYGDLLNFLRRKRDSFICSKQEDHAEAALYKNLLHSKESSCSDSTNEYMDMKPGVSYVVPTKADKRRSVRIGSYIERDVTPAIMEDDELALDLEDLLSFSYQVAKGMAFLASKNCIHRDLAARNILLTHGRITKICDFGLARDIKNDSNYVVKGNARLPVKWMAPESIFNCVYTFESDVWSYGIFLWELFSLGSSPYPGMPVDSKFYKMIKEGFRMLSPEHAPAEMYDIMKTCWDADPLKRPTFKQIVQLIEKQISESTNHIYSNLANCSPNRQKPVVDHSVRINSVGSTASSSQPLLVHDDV
testName: KIT kinase assay, 33P-ATP incorporation, residual activity
Format: biochemical
reportedConditions: tested at 25 micromolar
This listing pairs molecules with measured c-Kit.
Enter a number only.

Illustrative cases are given below, each with its answer.
Return value of c-Kit for input `Nc1ncnc2c1ncn2[C@@H]1O[C@H](Cn2c(-c3ccc(OCc4ccccc4)cc3)nc3ccccc32)[C@@H](O)[C@H]1O` , no commentary.
38

Quick one: give measured c-Kit for `CCCCCCCCOc1ccc(-c2nc3cc(C(N)=O)ccc3n2C[C@H]2O[C@@H](n3nnc(C(N)=O)c3-c3ccccc3)[C@H](O)[C@@H]2O)cc1`
17

// Input: Nc1ncnc2c1ncn2[C@@H]1O[C@H](CN2C(=O)C(Cc3ccccc3)N(Cc3ccccc3[N+](=O)[O-])C2=O)[C@@H](O)[C@H]1O (some centres unmarked) . Output its c-Kit only.
12

Next:
Give the value of c-Kit reported for the following: Nc1ncnc2c1ncn2[C@@H]1O[C@H](CN2C(=O)C(Cc3ccccc3)N(Cc3cccs3)C2=O)[C@@H](O)[C@H]1O (some centres unmarked)
18

# return recorded c-Kit for input Nc1ncnc2c1ncn2[C@@H]1O[C@H](CN2C(=O)C(Cc3ccccc3)N(Cc3cccn3S(=O)(=O)c3ccccc3)C2=O)[C@@H](O)[C@H]1O (some centres unmarked)
109

Output c-Kit of `CCCc1c(C(N)=O)nnn1[C@@H]1O[C@H](Cn2c(-c3ccc(F)c(C(F)(F)F)c3)nc3cc(C(N)=O)ccc32)[C@@H](O)[C@H]1O`
92

Supply recorded c-Kit for `CCCc1c(C(N)=O)nnn1[C@@H]1O[C@H](CNCc2nc3cc(C(N)=O)ccc3n2-c2ccc(-c3ccccc3)cc2)[C@@H](O)[C@H]1O` here.
40

Complete the entry with c-Kit for `Cc1cccc(CSc2nc3cc(C(N)=O)ccc3n2C[C@H]2O[C@@H](n3cnc4c(N)ncnc43)[C@H](O)[C@@H]2O)c1`
52

* * *

testedTarget: CDK2/CycA (Homo sapiens, UniProt P24941)
testName: CDK2/CycA kinase assay, 33P-ATP incorporation, residual activity
Format: biochemical
reportedConditions: tested at 25 micromolar
Rule: CDK2 of 30 or more gives satisfied; anything lower gives not satisfied.

Consider the following illustrative entries.
hey, is CDK2 for this one >= 30? Nc1ncnc2c1ncn2[C@@H]1O[C@H](CN2C(=O)C(Cc3ccccc3)N(Cc3cccn3S(=O)(=O)c3ccccc3)C2=O)[C@@H](O)[C@H]1O (some centres unmarked) [compound 223]
satisfied

Tell me whether CDK2 is at least 30 here: CCCc1c(C(N)=O)nnn1[C@@H]1O[C@H](CNCc2nc3cc(C(N)=O)ccc3n2-c2ccc(-c3ccccc3)cc2)[C@@H](O)[C@H]1O [compound 345]
satisfied

Entry Nc1ncnc2c1ncn2[C@@H]1O[C@H](CN2C(=O)C(Cc3ccccc3)N(Cc3ccccc3[N+](=O)[O-])C2=O)[C@@H](O)[C@H]1O (some centres unmarked) [compound 212] : is its CDK2 no less than 30?
not satisfied

Others:
Is the recorded value of CDK2 equal to or greater than 30 for this compound? Nc1ncnc2c1ncn2[C@@H]1O[C@H](CN2C(=O)C(Cc3ccccc3)N(Cc3cccs3)C2=O)[C@@H](O)[C@H]1O (some centres unmarked) [compound 605]
not satisfied

* * *

Each entry below carries its recorded ABL.
testedTarget: UniProtKB P00519
testName: ABL kinase assay, 33P-ATP incorporation, residual activity
Format: biochemical
reportedConditions: tested at 25 micromolar

Please review the following examples before continuing.
Using the record for `Cc1cccc(CSc2nc3cc(C(N)=O)ccc3n2C[C@H]2O[C@@H](n3cnc4c(N)ncnc43)[C@H](O)[C@@H]2O)c1` , state its measured ABL.
109

Name the recorded ABL of the item Nc1ncnc2c1ncn2[C@@H]1O[C@H](CN2C(=O)C(Cc3ccccc3)N(Cc3cccn3S(=O)(=O)c3ccccc3)C2=O)[C@@H](O)[C@H]1O (stereo partly drawn) in your answer.
24

Supply ABL value. Item: `CCCc1c(C(N)=O)nnn1[C@@H]1O[C@H](Cn2c(-c3ccc(F)c(C(F)(F)F)c3)nc3cc(C(N)=O)ccc32)[C@@H](O)[C@H]1O`
107

Using known records, supply ABL for Nc1ncnc2c1ncn2[C@@H]1O[C@H](CN2C(=O)C(Cc3ccccc3)N(Cc3cccs3)C2=O)[C@@H](O)[C@H]1O (stereo partly drawn)
55

Give recorded ABL. `CCCCCCCCOc1ccc(-c2nc3cc(C(N)=O)ccc3n2C[C@H]2O[C@@H](n3nnc(C(N)=O)c3-c3ccccc3)[C@H](O)[C@@H]2O)cc1`
6

We now examine a further compound.
State its ABL: Nc1ncnc2c1ncn2[C@@H]1O[C@H](CN2C(=O)C(Cc3ccccc3)N(Cc3ccccc3Sc3ccc(Cl)cc3)C2=O)[C@@H](O)[C@H]1O (stereo partly drawn)
49

* * *

testedTarget: ABL (Homo sapiens, UniProt P00519)
Sequence (P00519 whole entry, species assumed): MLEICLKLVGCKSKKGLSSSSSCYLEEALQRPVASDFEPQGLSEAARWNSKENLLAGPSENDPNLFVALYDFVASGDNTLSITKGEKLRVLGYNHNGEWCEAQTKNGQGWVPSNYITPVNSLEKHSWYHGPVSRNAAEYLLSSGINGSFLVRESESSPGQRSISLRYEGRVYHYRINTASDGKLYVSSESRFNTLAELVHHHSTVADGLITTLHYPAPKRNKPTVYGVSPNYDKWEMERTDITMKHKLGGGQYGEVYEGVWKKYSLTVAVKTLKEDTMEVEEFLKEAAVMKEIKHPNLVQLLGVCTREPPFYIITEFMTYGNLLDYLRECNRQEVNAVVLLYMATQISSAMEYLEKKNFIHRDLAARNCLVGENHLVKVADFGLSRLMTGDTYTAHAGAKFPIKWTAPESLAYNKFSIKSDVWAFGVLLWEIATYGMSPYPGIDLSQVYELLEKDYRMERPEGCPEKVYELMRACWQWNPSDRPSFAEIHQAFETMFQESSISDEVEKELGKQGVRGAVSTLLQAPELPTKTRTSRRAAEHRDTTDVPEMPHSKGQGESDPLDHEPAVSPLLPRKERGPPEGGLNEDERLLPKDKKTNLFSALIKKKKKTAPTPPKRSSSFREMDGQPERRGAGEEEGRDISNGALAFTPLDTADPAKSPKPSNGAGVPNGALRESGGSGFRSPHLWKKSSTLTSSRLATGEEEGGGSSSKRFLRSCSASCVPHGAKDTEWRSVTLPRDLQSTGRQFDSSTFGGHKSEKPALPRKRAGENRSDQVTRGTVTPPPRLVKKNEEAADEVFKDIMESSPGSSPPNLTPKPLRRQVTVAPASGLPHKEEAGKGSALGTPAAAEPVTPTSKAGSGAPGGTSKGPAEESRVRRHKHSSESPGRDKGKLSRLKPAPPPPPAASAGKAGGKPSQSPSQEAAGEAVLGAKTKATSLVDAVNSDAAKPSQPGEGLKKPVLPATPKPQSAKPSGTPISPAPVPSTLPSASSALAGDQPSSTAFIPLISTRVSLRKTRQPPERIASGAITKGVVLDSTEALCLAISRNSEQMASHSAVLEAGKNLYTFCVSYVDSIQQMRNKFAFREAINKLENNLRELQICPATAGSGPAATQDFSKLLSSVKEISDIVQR
testName: ABL kinase assay, 33P-ATP incorporation, residual activity
Assay type: biochemical
reportedConditions: tested at 25 micromolar
Quick reference for ABL among some compounds
Keep it simple and answer with nothing but the number.

State, in one line, measured ABL of `CCCc1c(C(N)=O)nnn1[C@@H]1O[C@H](CNCc2nc3cc(C(N)=O)ccc3n2-c2ccc(-c3ccccc3)cc2)[C@@H](O)[C@H]1O`
74

Identify measured ABL corresponding to Nc1ncnc2c1ncn2[C@@H]1O[C@H](CN2C(=O)C(Cc3ccccc3)N(Cc3ccccc3[N+](=O)[O-])C2=O)[C@@H](O)[C@H]1O (some centres unmarked)
41

Let me know recorded ABL for CCn1c2ccccc2c2ccc(CN3C(=O)N(C[C@H]4O[C@@H](n5nnc(C(N)=O)c5-c5ccccc5)[C@H](O)[C@@H]4O)C(=O)C3Cc3ccccc3)cc21 (some centres unmarked) , thanks.
30

Output ABL of `CCCCCCCCSc1nc2cc(C(N)=O)ccc2n1C[C@H]1O[C@@H](n2nnc(C(N)=O)c2-c2ccccc2)[C@H](O)[C@@H]1O`
115

Now consider the entry below.
Recall and state the measured ABL for `Nc1ncnc2c1ncn2[C@@H]1O[C@H](Cn2c(-c3ccc(OCc4ccccc4)cc3)nc3ccccc32)[C@@H](O)[C@H]1O` .
96

* * *

# reported CDK2; entries follow
testedTarget: CDK2/CycA (Homo sapiens, UniProt P24941)
testName: CDK2/CycA kinase assay, 33P-ATP incorporation, residual activity
Type: biochemical
reportedConditions: tested at 25 micromolar

In the examples that follow, each entry is paired with its recorded CDK2.
Indicate its recorded CDK2; the compound in question is `CCCc1c(C(N)=O)nnn1[C@@H]1O[C@H](Cn2c(-c3ccc(F)c(C(F)(F)F)c3)nc3cc(C(N)=O)ccc32)[C@@H](O)[C@H]1O`
28

For the compound CCn1c2ccccc2c2ccc(CN3C(=O)N(C[C@H]4O[C@@H](n5nnc(C(N)=O)c5-c5ccccc5)[C@H](O)[C@@H]4O)C(=O)C3Cc3ccccc3)cc21 (stereo partly drawn) , give its measured CDK2 value.
26

New cases:
Using the record for `Cc1cccc(CSc2nc3cc(C(N)=O)ccc3n2C[C@H]2O[C@@H](n3cnc4c(N)ncnc43)[C@H](O)[C@@H]2O)c1` , state its measured CDK2.
70

Entry `CCCCCCCCSc1nc2cc(C(N)=O)ccc2n1C[C@H]1O[C@@H](n2nnc(C(N)=O)c2-c2ccccc2)[C@H](O)[C@@H]1O` needs its CDK2 filled in; supply it.
270

Return value of CDK2 for input `Nc1ncnc2c1ncn2[C@@H]1O[C@H](Cn2c(-c3ccc(OCc4ccccc4)cc3)nc3ccccc32)[C@@H](O)[C@H]1O` , no commentary.
119

Please indicate CDK2 recorded for `CCCCCCCCOc1ccc(-c2nc3cc(C(N)=O)ccc3n2C[C@H]2O[C@@H](n3nnc(C(N)=O)c3-c3ccccc3)[C@H](O)[C@@H]2O)cc1`
20

* * *

testedTarget: TIE2 (Homo sapiens, UniProt Q02763)
Construct: made in house
Sequence (Q02763 23-1124, species assumed): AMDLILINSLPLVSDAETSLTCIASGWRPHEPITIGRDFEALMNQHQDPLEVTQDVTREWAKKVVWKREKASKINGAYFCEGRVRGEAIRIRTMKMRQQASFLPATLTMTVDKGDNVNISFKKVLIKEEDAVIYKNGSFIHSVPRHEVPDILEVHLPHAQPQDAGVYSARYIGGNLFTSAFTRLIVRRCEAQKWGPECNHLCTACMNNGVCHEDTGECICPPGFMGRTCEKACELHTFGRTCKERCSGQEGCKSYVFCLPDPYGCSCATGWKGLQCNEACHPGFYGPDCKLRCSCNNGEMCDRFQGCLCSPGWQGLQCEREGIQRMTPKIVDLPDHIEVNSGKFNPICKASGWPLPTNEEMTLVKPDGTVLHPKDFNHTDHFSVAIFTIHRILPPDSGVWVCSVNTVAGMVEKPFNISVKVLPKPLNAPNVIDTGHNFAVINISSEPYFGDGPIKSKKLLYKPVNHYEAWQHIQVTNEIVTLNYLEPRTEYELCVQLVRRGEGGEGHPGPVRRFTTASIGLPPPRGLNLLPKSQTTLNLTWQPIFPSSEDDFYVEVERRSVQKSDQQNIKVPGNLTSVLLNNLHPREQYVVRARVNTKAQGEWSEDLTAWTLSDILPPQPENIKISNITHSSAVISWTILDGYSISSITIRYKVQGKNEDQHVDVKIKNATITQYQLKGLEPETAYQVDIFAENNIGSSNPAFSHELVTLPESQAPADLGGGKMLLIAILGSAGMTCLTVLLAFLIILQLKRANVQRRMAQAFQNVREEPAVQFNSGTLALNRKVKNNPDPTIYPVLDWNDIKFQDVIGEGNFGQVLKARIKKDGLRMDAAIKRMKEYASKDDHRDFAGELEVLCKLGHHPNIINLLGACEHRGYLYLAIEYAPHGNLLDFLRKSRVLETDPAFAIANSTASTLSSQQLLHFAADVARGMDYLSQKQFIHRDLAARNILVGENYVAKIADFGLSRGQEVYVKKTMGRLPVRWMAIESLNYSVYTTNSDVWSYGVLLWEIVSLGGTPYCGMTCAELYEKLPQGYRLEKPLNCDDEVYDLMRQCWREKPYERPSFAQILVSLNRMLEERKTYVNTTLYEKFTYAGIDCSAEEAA
testName: TIE2 kinase assay, 33P-ATP incorporation, residual activity
Assay type: biochemical
reportedConditions: tested at 25 micromolar
Threshold rule: Tie2 greater than or equal to 40 is Satisfied; below that, Not satisfied.

Decide: is the reported value of Tie2 for Nc1ncnc2c1ncn2[C@@H]1O[C@H](CN2C(=O)C(Cc3ccccc3)N(Cc3cccn3S(=O)(=O)c3ccccc3)C2=O)[C@@H](O)[C@H]1O (some centres unmarked) equal to or greater than 40?
Not satisfied

// inclusive: Tie2 at least 40? input: CCn1c2ccccc2c2ccc(CN3C(=O)N(C[C@H]4O[C@@H](n5nnc(C(N)=O)c5-c5ccccc5)[C@H](O)[C@@H]4O)C(=O)C3Cc3ccccc3)cc21 (some centres unmarked)
Not satisfied

Record `CCCCCCCCOc1ccc(-c2nc3cc(C(N)=O)ccc3n2C[C@H]2O[C@@H](n3nnc(C(N)=O)c3-c3ccccc3)[C@H](O)[C@@H]2O)cc1` ; criterion: Tie2 no lower than 40. Met?
Not satisfied

hey, is Tie2 for this one >= 40? Nc1ncnc2c1ncn2[C@@H]1O[C@H](CN2C(=O)C(Cc3ccccc3)N(Cc3cccs3)C2=O)[C@@H](O)[C@H]1O (some centres unmarked)
Not satisfied

Confirm if Tie2 reported for the compound `Cc1cccc(CSc2nc3cc(C(N)=O)ccc3n2C[C@H]2O[C@@H](n3cnc4c(N)ncnc43)[C@H](O)[C@@H]2O)c1` is 40 or above.
Satisfied

Threshold query (Tie2 >= 40) on Nc1ncnc2c1ncn2[C@@H]1O[C@H](CN2C(=O)C(Cc3ccccc3)N(Cc3ccccc3[N+](=O)[O-])C2=O)[C@@H](O)[C@H]1O (some centres unmarked)
Not satisfied

Is Tie2 for `Nc1ncnc2c1ncn2[C@@H]1O[C@H](Cn2c(-c3ccc(OCc4ccccc4)cc3)nc3ccccc32)[C@@H](O)[C@H]1O` at or above 40?
Satisfied

Could you verify whether the entry `CCCCCCCCSc1nc2cc(C(N)=O)ccc2n1C[C@H]1O[C@@H](n2nnc(C(N)=O)c2-c2ccccc2)[C@H](O)[C@@H]1O` shows Tie2 of no less than 40?
Satisfied

Could you verify whether the entry Nc1ncnc2c1ncn2[C@@H]1O[C@H](CN2C(=O)C(Cc3ccccc3)N(Cc3ccccc3Sc3ccc(Cl)cc3)C2=O)[C@@H](O)[C@H]1O (some centres unmarked) shows Tie2 of no less than 40?
Not satisfied

Now consider a different compound.
Test whether the compound `CCCc1c(C(N)=O)nnn1[C@@H]1O[C@H](Cn2c(-c3ccc(F)c(C(F)(F)F)c3)nc3cc(C(N)=O)ccc32)[C@@H](O)[C@H]1O` records Tie2 of 40 or higher.
Satisfied
